Reported %Inh values follow for various compounds
# Tested on: CDKL2
# Recorded conditions: concentration: 1 μM, replicates: in singlicate; n = 1;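 note: KINOMEscan kinase panel screen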
Give the value; after it, write the unit.

* Fc1cccc(COc2nnc(-c3ccc4c(c3)CCO4)o2)c1 | 9%
* CCn1c(-c2ccccn2)nc2cnccc21 | 17%
* Cc1cccc(-c2cc(Nc3ccncc3)c3ccccc3n2)n1 | 5%
* CS(=O)(=O)c1ccc(-c2nc3n(c2-c2ccncc2)CCC3)cc1 | 17%
* CC1=C(C(=O)Nc2cc3cn[nH]c3cc2F)C(c2ccc(C(F)(F)F)cc2)CC(=O)N1 (stereo not shown) | 4%

Input: Given the compound Fc1cc(Cl)ccc1Nc1ccnc2cc(-c3ccc(CN4CCCCC4)o3)ccc12 , what is its reported %Inh?
Output: 2%

Input: Consider next the compound COC(=O)c1c(-c2ccccc2)c2cc(OC)ccc2c(=O)n1Cc1ccccc1 in the same way.
Output: 13%

Input: Consider next the compound O=C(Nc1ccccc1)Nc1cccc(Oc2ccc3nccn3n2)c1 in the same way.
Output: 4%

Input: Consider next the compound O=c1cc(N2CCOCC2)nc2n(Cc3cccc(Cl)c3Cl)ccn12 in the same way.
Output: 7%

Input: Consider next the compound Cn1ccc2ncnc(Oc3ccc(Nc4nc5ccccc5[nH]4)cc3)c21 in the same way.
Output: 0%

Input: Consider next the compound CC(C)(C)c1ccc(C(=O)Nc2cn3cc(Cl)ccc3n2)cc1 in the same way.
Output: 0%

Input: Consider next the compound O=C(Nc1n[nH]c2cc(-c3cccc(F)c3F)ccc12)C1CC1 in the same way.
Output: 95%

Input: Consider next the compound Nc1ncnc2[nH]c(-c3ccccc3)nc12 in the same way.
Output: 32%

###

# Test system: RSK3(Kin.Dom.1-N-terminal)
# Construct: gene RPS6KA2
# Recorded conditions: concentration: 1 μM, replicates: in singlicate; n = 1
Endpoint label: %Inh (%)
Kindly answer with a numeric value in %, unit omitted.

Worked set:
• COc1ccccc1-c1ccc2c(NC(=O)C3CC3)n[nH]c2n1 [SB-711239] = 0
• COc1cccc(NC(=O)NC2CCN(c3ccnc(Nc4ccc(F)cc4)n3)C2)c1 (stereo not drawn) [GSK1379721] = 5
• COc1ccc(C2=C(Nc3cccc(C(=O)O)c3)C(=O)NC2=O)cc1 [SB-390765] = 9
• O=C1NC(=O)C(N2CCc3ccccc32)=C1c1ccccc1Cl [SB-373598] = 0
• O=S(=O)(c1ccc(-c2ccnc3[nH]ccc23)cc1)N1CCCC1 [GSK846226] = 0

Input: Given the compound Cc1csc(-c2nc(Nc3ccncc3)c3ccccc3n2)n1 [GW869640] , what is its reported %Inh?
Output: 15

Input: Consider next the compound COC(=O)c1c(-c2ccccc2)c2cc(C(=O)O)ccc2c(=O)n1Cc1ccccc1 in the same way.
Output: 0

Input: Consider next the compound Fc1cc(Cl)ccc1Nc1ccnc2cc(-c3ccc(CN4CCCCC4)o3)ccc12 [GW560116] in the same way.
Output: 0

Input: Consider next the compound Cl.Oc1ccc(-c2nc(-c3ccccc3)[nH]c2-c2ccncc2)cc1 [SB-428218] in the same way.
Output: 0

Input: Consider next the compound CC(=O)Nc1nc2cnc(Nc3cc(NC(=O)c4cccc(CCC#N)c4)ccc3C)nc2s1 in the same way.
Output: 0

Input: Consider next the compound CS(=O)(=O)c1ccc(-c2nc3n(c2-c2ccncc2)CCC3)cc1 [SKF-105942] in the same way.
Output: 15

Input: Consider next the compound Cn1ccc2ncnc(Oc3ccc(NC(=O)Nc4ccccc4)cc3)c21 in the same way.
Output: 12

Input: Consider next the compound Cc1ccc(NC(=O)Nc2cccc(Cl)c2)cc1-c1ccc(C(=O)Nc2ccncc2)cc1 [GSK1398468] in the same way.
Output: 5

Input: Consider next the compound C[C@@H]1CCCCN1c1cc(-c2ccc3c(N)n[nH]c3c2)nc(N)n1 [GSK2258759] in the same way.
Output: 0

Input: Consider next the compound Cn1ccc2ncnc(Oc3ccc(Nc4nc5ccccc5[nH]4)cc3)c21 in the same way.
Output: 0

Input: Consider next the compound CN1C(=O)C(Nc2ccc(Cl)c(C(=O)O)c2)=C(c2ccc(Cl)cc2)C1=O [SB-404290] in the same way.
Output: 0

Input: Consider next the compound O=C(Nc1n[nH]c2nc(-c3nccs3)c(Br)cc12)C1CCCC1 [SB-742609] in the same way.
Output: 0

Input: Consider next the compound Cl.O=C(Nc1cccc(-c2nn3ncccc3c2-c2ccnc(Nc3cccnc3)n2)c1)c1c(F)cccc1F [GSK312879] in the same way.
Output: 23

###

# Test system: LTK
# Recorded conditions: concentration: 1 μM, replicates: in singlicate; n = 1
Endpoint label: %Inh (%)
Kindly answer with a numeric value in %, unit omitted.

- CS(=O)(=O)c1ccc(-c2c(-c3ncn[nH]3)sc(N3CCOCC3)c2C#N)cc1: 28
- COC(=O)c1c(-c2ccccc2)c2cc(OC)ccc2c(=O)n1Cc1ccccc1: 11
- COc1ccc(CNC(=O)NC2CCN(c3ccnc(Nc4cc(OC)c(OC)c(OC)c4)n3)C2)cc1 (stereo not drawn): 64
- Cc1c(O)cccc1Nc1ccnc2ccc(C(F)(F)F)cc12.Cl: 28

Input: Please provide the recorded %Inh for Cc1ccc(C(=O)Nc2ccc(Nc3ccnc4cc(-c5ccccn5)ccc34)cc2O)cc1.Cl , tested on LTK.
Output: 12

Input: Consider next the compound Cl.Oc1ccc(-c2nc(-c3ccccc3)[nH]c2-c2ccncc2)cc1 in the same way.
Output: 0

###

# System: ITK
# Recorded conditions: concentration: 1 μM, replicates: in singlicate; n = 1
Endpoint label: %Inh
Give the value; after it, write the unit.

Worked set:
* COc1cc2nccc(Nc3ccc(NC(=O)c4ccc(C)cc4)c(O)c3)c2cc1OC.Cl | 20%
* Cc1ccc(-c2cc(-c3c[nH]nc3-c3ccccn3)ccn2)cc1 | 0%
* COc1cc(Nc2nccc(N3CCC(NC(=O)Nc4cc(C)ccc4C)C3)n2)cc(OC)c1OC (stereo not drawn) | 30%

Input: Given the compound Cc1cc(N2Cc3ccccc3C2)nc(Nc2ccc(S(=O)(=O)N3CCOCC3)cc2)n1.Cl , what is its reported %Inh?
Output: 0%

Input: Consider next the compound Nc1ncnc2[nH]c(-c3ccccc3)nc12 in the same way.
Output: 12%

Input: Consider next the compound CS(=O)(=O)c1ccc(-c2nc3n(c2-c2ccncc2)CCC3)cc1 in the same way.
Output: 7%

Input: Consider next the compound O=c1cc(N2CCOCC2)nc2n(Cc3cccc(Cl)c3Cl)ccn12 in the same way.
Output: 4%

Input: Consider next the compound Cl.NC(=O)c1cccc(Nc2nccc(Nc3ccc(Oc4cccc(Cl)c4)c(Cl)c3)n2)c1 in the same way.
Output: 0%

Input: Consider next the compound CC(C)(C)c1ccc(C(=O)Nc2cn3cc(Cl)ccc3n2)cc1 in the same way.
Output: 0%

###

# Tested on: PRKD1
# Recorded conditions: concentration: 1 μM, replicates: in singlicate; n = 1
Reported %Inh values follow for various compounds
Kindly answer with a numeric value in %, unit omitted.

Worked set:
- O=c1cc(N2CCOCC2)nc2n(Cc3cccc(Cl)c3Cl)ccn12: 0
- Cc1cccc(-c2nc(Nc3cccc(C(N)=O)c3)c3ccccc3n2)n1: 64
- Cl.Oc1ccc(-c2nc(-c3ccccc3)[nH]c2-c2ccncc2)cc1: 0
- Cc1ccc(NC(=O)Nc2cccc(Cl)c2)cc1-c1ccc(C(=O)Nc2ccncc2)cc1: 0
- COc1ccc(Nc2nccc(-c3cccc(NC(=O)c4cc5cc(F)ccc5[nH]4)c3)n2)cc1: 10

Input: Given the compound Cc1ccc(NC(=O)Nc2cc(C(C)(C)C)nn2-c2ccccc2)cc1 , what is its reported %Inh?
Output: 7

Input: Consider next the compound O=C1NC(=O)C(N2CCc3ccccc32)=C1c1ccccc1Cl in the same way.
Output: 12

Input: Consider next the compound Fc1cc(Cl)ccc1Nc1ccnc2cc(-c3ccc(CN4CCCCC4)o3)ccc12 in the same way.
Output: 0

Input: Consider next the compound CC(C)(C)c1ccc(C(=O)Nc2cn3cc(-c4cccnc4)ccc3n2)cc1 in the same way.
Output: 21

###

# System: EPHA1
# Recorded conditions: concentration: 1 μM, replicates: in singlicate; n = 1
Endpoint label: %Inh (%)
Kindly answer with a numeric value in %, unit omitted.

Worked set:
• COc1cc2nccc(Nc3ccc(NC(=O)c4ccc(C)cc4)c(O)c3)c2cc1OC.Cl [GW440132] = 17
• COc1ccc(Nc2nccc(NCCNC(=O)Nc3ccccc3F)n2)cc1 [GSK1379901] = 33
• COc1cccc(NC(=O)NC2CCN(c3ccnc(Nc4ccc(F)cc4)n3)C2)c1 (stereo not shown) [GSK1379721] = 12

Input: Please provide the recorded %Inh for COc1ccc(Nc2nccc(-c3cccc(NC(=O)c4cc5cc(F)ccc5[nH]4)c3)n2)cc1 [GSK1229782] , tested on EPHA1.
Output: 56

###

# Tested on: IRAK3
# Recorded conditions: concentration: 1 μM, replicates: in singlicate; n = 1
Binarize %Inh at 3%; below is true (1), at or above is false (0).

Observe how each entry below is paired with its result.
* C[C@@H]1CCCCN1c1cc(-c2ccc3c(N)n[nH]c3c2)nc(N)n1 [GSK2258759] | true (1)
* COc1ccc(CNC(=O)NC2CCN(c3ccnc(Nc4cc(OC)c(OC)c(OC)c4)n3)C2)cc1 (stereo not drawn) [GSK1379748] | false (0)
* Clc1cc(Cl)cc(Nc2ccnc(Nc3cc(Cl)cc(Cl)c3)n2)c1 [GSK175726] | true (1)
* CC(=O)Nc1nc2cnc(Nc3cc(NC(=O)c4cccc(CCC#N)c4)ccc3C)nc2s1 | false (0)
* O=S(=O)(c1ccc(-c2ccnc3[nH]ccc23)cc1)N1CCCC1 [GSK846226] | false (0)

Input: Please state whether %Inh is below 3% for COc1cccc(-c2cc(-c3c[nH]nc3-c3ccccn3)ccn2)c1 [GW680338]
Output: true (1)

Input: Consider next the compound Cc1c(O)cccc1Nc1ccnc2ccc(C(F)(F)F)cc12.Cl [GW466413] in the same way.
Output: true (1)

Input: Consider next the compound O=C(Nc1ccc2c(c1)OCO2)NC1CCN(c2ccnc(Nc3ccc(F)cc3)n2)C1 (stereo not drawn) [GSK1379724] in the same way.
Output: true (1)

Input: Consider next the compound Cc1ccc(-c2cc(-c3c[nH]nc3-c3ccccn3)ccn2)cc1 [GW684088] in the same way.
Output: false (0)

Input: Consider next the compound COc1cc(Nc2nccc(N3CCC(NC(=O)Nc4cc(C)ccc4C)C3)n2)cc(OC)c1OC (stereo not drawn) [GSK1379762] in the same way.
Output: false (0)

Input: Consider next the compound Cc1nnc(-c2ccc3occ(-c4ccc(S(C)=O)cc4)c3c2)[nH]1 (stereo not drawn) in the same way.
Output: false (0)

Input: Consider next the compound Cl.c1ccc(-c2n[nH]cc2-c2ccnc(-c3ccc(CN4CCOCC4)cc3)c2)nc1 [GW776245] in the same way.
Output: true (1)

Input: Consider next the compound Cn1ccc2ncnc(Oc3ccc(Nc4nc5ccccc5[nH]4)cc3)c21 in the same way.
Output: true (1)

Input: Consider next the compound CS(=O)(=O)c1ccc(-c2c(-c3ncn[nH]3)sc(N3CCOCC3)c2C#N)cc1 in the same way.
Output: false (0)

Input: Consider next the compound COC(=O)c1c(-c2ccccc2)c2cc(OC)ccc2c(=O)n1Cc1ccccc1 in the same way.
Output: false (0)

Input: Consider next the compound COc1ccc(Nc2nccc(NCCNC(=O)Nc3ccccc3F)n2)cc1 [GSK1379901] in the same way.
Output: false (0)

Input: Consider next the compound Cn1ccc2ncnc(Oc3ccc(NC(=O)Nc4ccccc4)cc3)c21 in the same way.
Output: true (1)
